The reported numbers originate from the RNAGym collection of RNA variant scans (doi:10.1126/science.aae0568).

B1: tRNA (parent)
chain: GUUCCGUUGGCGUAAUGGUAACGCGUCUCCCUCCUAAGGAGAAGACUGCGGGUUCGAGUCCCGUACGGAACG

# Variants of: B1
# MEASUREMENT_DESCRIPTION: yeast fitness relative to wild type (ratio to wild type); higher = fitter; tRNA-Arg(CCU), competitive growth, 37 C, YPD
This sample holds only a part of the variants without activity.
PROPERTY_LABEL: yeast fitness

| MONOMER_SEQUENCE | PROPERTY_LABEL | DATA_VALUE |
| --- | --- | --- |
| GUUCCGUUGCCGUAAUGGUAAAGGGUCUCCCUCCUAAGGAGAAGACUGCGGGAUCGAGUCCCGUACAGAACG [G10C C22A C24G U53A G67A] | yeast fitness | ≤ 0.5 |
| GUUCUGUUGGCGUAAUCGUAACGGGUCUCCCUCCUAACGAGAAGACUGCGCGUUCGAGGCCCGUACGGAACG [C5U G17C C24G G38C G51C U59G] | yeast fitness | ≤ 0.5 |
| GUUCCGUUGGCGAAAUGGUAACGCGUUUCCCUCCUAAGGAGAAGACUGCGGGUUCGAGUCACGUACGGAACG [U13A C27U C61A] | yeast fitness | 0.619 |
| GUUCGGUUGGCGUAAUGGUAACGCGUCUCCCUCCUAAGGAGAAGACAGCGGGUUCUACUCCCGUACGGAACG [C5G U47A G56U G58C] | yeast fitness | ≤ 0.5 |
| GUUCCGUUGGCAUAAUGGUAACGCGUCUCCCUUCUAAGGAGAAGACUGCGGGUUCGAGUCCCGUACGGAACG [G12A C33U] | yeast fitness | 0.839 |
| GUUCCGGUGGCGUACUGGUAACGUGUCUCCCUCCUAAGGAGAGGACUGCGAGUCCGAGUCCCGUACCGAACG [U7G A15C C24U A43G G51A U54C G67C] | yeast fitness | 0.78 |
| GUUCCGUUGGCGUAAUGGUAACGCGUCUUCCUCCUAUGGAGAAGAUUGCGGGUUCGAGGCCCGUACGGAACG [C29U A37U C46U U59G] | yeast fitness | ≤ 0.5 |
| GUUCCGUUGGCGUAAUGGUAACGCGUCUCCCUCUUAAGGACAAGACUGCGGGUUCGAGUCCCGUACGGGACG [C34U G41C A69G] | yeast fitness | ≤ 0.5 |
| GUUCCGUUGGCGUAAUGGCAACGCGUCUCCCUGCUAAGGAGAAGACUGCGGGUUCGGGUCGCGUACGGGACG [U19C C33G A57G C61G A69G] | yeast fitness | 0.65 |
| GUUCCGUUGGCGUAAUGGUAACGCGUCUCCCUCAUAAGGAGAAGACUGCAGGUUCGAGUCCCGUACGGAACG [C34A G50A] | yeast fitness | 0.742 |
| GUUCCGUUGGCGUAAUGGUCACGCGUCUCCCUCCUAAGGAGAAGACUCCGGGUUCGAGUCCCGUACGGACCG [A20C G48C A70C] | yeast fitness | 0.649 |
| GUUCCGUUGGAGUAAUGGUAACGCGUGUCGCUCCUAAGGAGAACACUGCGGGUUCGAGUCCCGUACGGAACG [C11A C27G C30G G44C] | yeast fitness | 0.538 |
| GUUCCAUUGGCGUAAUGGUAACGCGUCUCCCUCAUAAGGUGAAGACUGCGGGUUCGAGGCCCGUACGGAACG [G6A C34A A40U U59G] | yeast fitness | ≤ 0.5 |
| GUUCCGUUGGCGUAAUGGCAAAACGUCUCCCUCUUAAGGAGAAGACUGCGGGUUCGCGUCCCGUAUGGCACG [U19C C22A G23A C34U A57C C66U A69C] | yeast fitness | ≤ 0.5 |
| GUUCUGUUGGCGUAAUGGUAACGCGUCUCCAUCCUAAGGAGAAGACUGCGGGUUCGAGUCCCGUACGGAACG [C5U C31A] | yeast fitness | 0.688 |
| GUUCCGAUGGCGUAAUGGUAACGCGUCUCCCUCCUAAGCAGACCACCGCGGGUUCGAGUCUCGUACGGAACG [U7A G39C A43C G44C U47C C61U] | yeast fitness | ≤ 0.5 |
| GUUCCGUUGGUGUAAUGGCAACGCGUCUCCAUCCUAAGGAGAAGACUGCUGGUUCGAGUCCGGUACGGAACG [C11U U19C C31A G50U C62G] | yeast fitness | ≤ 0.5 |
| GUUUCGUGGGCGUAAUGGUGACGCGUCUCCCUCCUAAGGAGAAGACGGCGGGUUCGGGUCCCGUACGGAACG [C4U U8G A20G U47G A57G] | yeast fitness | ≤ 0.5 |
| GUUCUGUUGGCGUCAUGGUAACGCGUCUCCCUCCUAAGGAGAAGAAUGCGGGUUCGAGUCCCCUACGGUACG [C5U A14C C46A G63C A69U] | yeast fitness | ≤ 0.5 |
| GUUCCGUUGGCGUAAUGGUAAUGCGUCUCCCUCCUAAGGGGAUGAGUGGGGGUUCGAGUCCCGUACGGAGCG [C22U A40G A43U C46G C49G A70G] | yeast fitness | ≤ 0.5 |
| GUUCUGUUGGCGUAAUGGUAACGCGUUUCCCUCCUAAGGAGAAGUCUGCGGGUUCGAGUGCCGUACGGAACG [C5U C27U A45U C60G] | yeast fitness | ≤ 0.5 |
| GUUCCGUUGGCGUAAUGGUAAGGCGUCUCCCUCUUAAGGAGACGACUGCGGGUUCGAGUCCCGUACGGUACG [C22G C34U A43C A69U] | yeast fitness | ≤ 0.5 |
